# Target Entity: hGPR120 (Homo sapiens)
# Procedure Summary: Measurement of Activity of GPR120 Agonist (Cell-Based Assay), Calcium 5 dye fluorescence
# Condition Set: CHO-K1 cells expressing Ga16 and hGPR120
The entries below are paired with their reported EC50.
Reported Endpoint: EC50

{"columns": ["Molecule", "Reported Measurement"],
 "data": [
  ["O=C(O)CC1CCN(c2c(F)cc(-c3cncc(N4CCCC4)n3)cc2F)CC1", "2 to 20 µM"],
  ["CCCOc1cc(C(F)(F)F)nc(-c2cc(F)c(N3CCC(CC(=O)O)CC3)c(F)c2)n1", "2 to 20 µM"],
  ["CN(CCCC(=O)O)c1c(F)cc(-c2ccccc2N2CCCC2)cc1F", "< 0.2 µM"],
  ["CC(C)N(C)c1ccccc1-c1cc(F)c(N(C)CCCC(=O)O)c(F)c1", "< 0.2 µM"],
  ["O=C(O)C[C@H]1CCN(c2c(F)cc(-c3cccnc3OC3CCCC3)cc2F)C1", "< 0.2 µM"],
  ["COc1cccc(-c2cc(F)c(OCCCC(=O)O)c(F)c2)c1OC", "0.2 to 2 µM"],
  ["O=C(O)CC1CCN(c2c(F)cc(-c3nccc(Oc4cccc(C(F)(F)F)c4)n3)cc2F)CC1", "0.2 to 2 µM"],
  ["CC(CCCC(=O)O)c1c(F)cc(-c2ccc(Cl)c(OC3CCC3)n2)cc1F (centres unmarked)", "< 0.2 µM"]
]}

====

# Target Entity: hGPR120 (Homo sapiens)
# Procedure Summary: Measurement of Activity of GPR120 Agonist (Cell-Based Assay), Calcium 5 dye fluorescence
# Condition Set: CHO-K1 cells expressing Ga16 and hGPR120
The entries below are paired with their reported EC50.

{"columns": ["Compound", "EC50"],
 "data": [
  ["O=C(O)CC1CCN(c2c(F)cc(-c3nccc(Oc4cccnc4)n3)cc2F)CC1", "200 to 2000 nM"],
  ["CCOc1ccnc(-c2cc(F)c(N3CCC(CC(=O)O)CC3)c(F)c2)n1", "< 200 nM"],
  ["O=C(O)CCCOc1c(F)cc(-c2csc(COC3CCC3)c2)cc1F", "< 200 nM"],
  ["CC(CCCC(=O)O)c1c(F)cc(-c2cccnc2SC2CCC2)cc1F (stereo not drawn)", "< 200 nM"],
  ["Cc1cc(OC2CCC2)nc(-c2cc(F)c(OCC3CC3C(=O)O)c(F)c2)n1 (stereo not drawn)", "< 200 nM"],
  ["CC(CCCC(=O)O)c1c(F)cc(-c2cccc(OC3CCCC3)n2)cc1F (stereo not drawn)", "< 200 nM"],
  ["O=C(O)CC1CCN(c2c(F)cc(-c3cccnc3SC3CCC3)cc2F)CC1", "200 to 2000 nM"],
  ["O=C(O)CC1CCN(c2c(F)cc(-c3cncc(OC4CCC4)n3)cc2F)CC1", "< 200 nM"],
  ["O=C(O)CCC1CCc2cc(-c3cccnc3SC3CCCC3)ccc2O1 (stereo not drawn)", "< 200 nM"]
]}

====

# Target Entity: hGPR120 (Homo sapiens)
# Construct: expressed in transfected cells; host or cells: CHO-K1
# Sequence (Q5NUL3 1-361): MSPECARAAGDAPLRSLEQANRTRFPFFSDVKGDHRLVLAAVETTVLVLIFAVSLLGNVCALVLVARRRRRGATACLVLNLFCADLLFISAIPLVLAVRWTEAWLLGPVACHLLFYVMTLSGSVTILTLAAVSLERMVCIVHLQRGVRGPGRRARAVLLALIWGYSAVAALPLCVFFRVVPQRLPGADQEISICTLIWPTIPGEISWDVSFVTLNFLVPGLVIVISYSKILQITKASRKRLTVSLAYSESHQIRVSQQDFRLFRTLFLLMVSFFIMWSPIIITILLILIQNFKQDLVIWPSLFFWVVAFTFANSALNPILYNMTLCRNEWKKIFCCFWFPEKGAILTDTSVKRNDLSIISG
# Procedure Summary: Measurement of Activity of GPR120 Agonist (Cell-Based Assay), Calcium 5 dye fluorescence
# Condition Set: CHO-K1 cells expressing Ga16 and hGPR120
The entries below are paired with their reported EC50.

{"columns": ["Molecule", "Target Entity", "EC50"],
 "data": [
  ["O=C(O)CCCN1CCc2cc(-c3cccnc3SC3CCCC3)ccc21", "hGPR120 (Homo sapiens)", "< 200 nM"],
  ["O=C(O)CCc1ccc2cc(-c3cccc(Oc4ccccc4)n3)ccc2c1", "hGPR120 (Homo sapiens)", "< 200 nM"],
  ["CCCOc1cc(C)nc(-c2cc(F)c(N3CCC(CC(=O)O)CC3)c(F)c2)n1", "hGPR120 (Homo sapiens)", "< 200 nM"],
  ["COc1ccc(-c2cc(F)c(OCCCC(=O)O)c(F)c2)cc1OCC1CC1", "hGPR120 (Homo sapiens)", "< 200 nM"],
  ["O=C(O)CC1CCN(c2c(F)cc(-c3ncc(F)c(OCC4CC4)n3)cc2F)C1 (stereo not drawn)", "hGPR120 (Homo sapiens)", "200 to 2000 nM"],
  ["CC(C)Oc1ccnc(-c2cc(F)c(N3CCC(CC(=O)O)CC3)c(F)c2)n1", "hGPR120 (Homo sapiens)", "< 200 nM"],
  ["CC(C)Sc1cccc(-c2cc(F)c(OCc3cc(O)no3)c(F)c2)n1", "hGPR120 (Homo sapiens)", "< 200 nM"],
  ["O=C(O)CCCOc1c(F)cc(-c2cccc(SC3CCC3)n2)cc1Cl", "hGPR120 (Homo sapiens)", "< 200 nM"],
  ["CC(C)Sc1cccc(-c2ccc3nc(CCC(=O)O)ccc3c2)n1", "hGPR120 (Homo sapiens)", "200 to 2000 nM"],
  ["O=C(O)CCC1CC1c1c(F)cc(-c2cccnc2NC2CCCC2)cc1F (stereo not drawn)", "hGPR120 (Homo sapiens)", "< 200 nM"],
  ["O=C(O)CCCOc1c(F)cc(-n2ncc3ccc(OC4CCC4)cc32)cc1Cl", "hGPR120 (Homo sapiens)", "< 200 nM"],
  ["CC(C)Sc1cccc(-c2cc(F)c(-n3cc(CC(=O)O)cn3)c(F)c2)n1", "hGPR120 (Homo sapiens)", "200 to 2000 nM"],
  ["Oc1cc(COc2c(F)cc(-c3cccnc3SC3CCCC3)cc2F)on1", "hGPR120 (Homo sapiens)", "< 200 nM"],
  ["O=C(O)CCCOc1ccc(-c2cccc(OC3CCC3)n2)cc1F", "hGPR120 (Homo sapiens)", "< 200 nM"],
  ["Cc1cc(OCC2CC2)nc(-c2cc(F)c(N3CCC(CC(=O)O)CC3)c(F)c2)n1", "hGPR120 (Homo sapiens)", "200 to 2000 nM"],
  ["O=C(O)CCC1CCc2cc(-c3cccc(OCC4CC4)n3)ccc2O1 (stereo not drawn)", "hGPR120 (Homo sapiens)", "< 200 nM"],
  ["O=C(O)CCCCc1c(F)cc(-c2cccnc2SC2CCCC2)cc1F", "hGPR120 (Homo sapiens)", "< 200 nM"],
  ["CCOCc1cccc(-c2cc(F)c(N3CCC(CC(=O)O)CC3)c(F)c2)c1", "hGPR120 (Homo sapiens)", "200 to 2000 nM"],
  ["COc1ccc(-c2cc(F)c(OCCCC(=O)O)c(Cl)c2)cc1OCC1CC1", "hGPR120 (Homo sapiens)", "< 200 nM"],
  ["O=C(O)CC1CCN(c2c(F)cc(-c3cncc(C4CCCC4)n3)cc2F)CC1", "hGPR120 (Homo sapiens)", "< 200 nM"],
  ["O=C(O)CCCOc1c(F)cc(-c2cccc(OC3CCC3)n2)cc1Cl", "hGPR120 (Homo sapiens)", "< 200 nM"],
  ["O=C(O)CCCn1ccc2cc(-c3cccnc3SC3CCCC3)ccc21", "hGPR120 (Homo sapiens)", "200 to 2000 nM"],
  ["CCCSc1ncccc1-c1cc(F)c(N(C)CCCC(=O)O)c(F)c1", "hGPR120 (Homo sapiens)", "< 200 nM"],
  ["O=C(O)CCCOc1c(F)cc(-n2ncc3ccc(OC4CCC4)cc32)cc1F", "hGPR120 (Homo sapiens)", "< 200 nM"],
  ["O=C(O)CCCCc1ccc(-c2cccc(OC3CCC3)n2)cc1F", "hGPR120 (Homo sapiens)", "< 200 nM"],
  ["O=C(O)CCc1ccc2cc(-c3cccnc3Oc3ccccc3)ccc2c1", "hGPR120 (Homo sapiens)", "< 200 nM"],
  ["O=C(O)CC1CCN(c2c(F)cc(-c3cccc4sc(-c5ccc(F)cc5)cc34)cc2F)CC1", "hGPR120 (Homo sapiens)", "2000 to 20000 nM"],
  ["CC1(C)Cc2c(cccc2-c2ccc(OCCCC(=O)O)c(F)c2)O1", "hGPR120 (Homo sapiens)", "< 200 nM"],
  ["CC(C)Nc1cncc(-c2cc(F)c(N3CCC(CC(=O)O)CC3)c(F)c2)n1", "hGPR120 (Homo sapiens)", "200 to 2000 nM"],
  ["COCc1ccc2c(cnn2-c2cc(F)c(OCCCC(=O)O)c(F)c2)c1", "hGPR120 (Homo sapiens)", "2000 to 20000 nM"],
  ["O=C(O)CCCOc1c(F)cc(-c2ccnc(OC3CCC3)n2)cc1Cl", "hGPR120 (Homo sapiens)", "< 200 nM"],
  ["O=C(O)CCCSc1c(F)cc(-c2cccc3c2OC(F)(F)O3)cc1F", "hGPR120 (Homo sapiens)", "< 200 nM"],
  ["CN(CCCC(=O)O)c1c(F)cc(-c2nccc(OC3CCC3)n2)cc1F", "hGPR120 (Homo sapiens)", "< 200 nM"],
  ["O=C(O)CCCOc1c(F)cc(-c2nccc(OCC3CC3)n2)cc1F", "hGPR120 (Homo sapiens)", "< 200 nM"],
  ["O=C(O)CCCOc1ccc(-c2cccc(SC3CCC3)n2)cc1F", "hGPR120 (Homo sapiens)", "< 200 nM"],
  ["CC(C)Sc1ncccc1-c1cc(F)c(N2CCC(CC(=O)O)C2)c(F)c1 (stereo not drawn)", "hGPR120 (Homo sapiens)", "< 200 nM"]
]}
